Biological target: T1, RXFP1 receptor (UniProt Q9HBX9 1-757, limits assumed)
T1 sequence (looked up): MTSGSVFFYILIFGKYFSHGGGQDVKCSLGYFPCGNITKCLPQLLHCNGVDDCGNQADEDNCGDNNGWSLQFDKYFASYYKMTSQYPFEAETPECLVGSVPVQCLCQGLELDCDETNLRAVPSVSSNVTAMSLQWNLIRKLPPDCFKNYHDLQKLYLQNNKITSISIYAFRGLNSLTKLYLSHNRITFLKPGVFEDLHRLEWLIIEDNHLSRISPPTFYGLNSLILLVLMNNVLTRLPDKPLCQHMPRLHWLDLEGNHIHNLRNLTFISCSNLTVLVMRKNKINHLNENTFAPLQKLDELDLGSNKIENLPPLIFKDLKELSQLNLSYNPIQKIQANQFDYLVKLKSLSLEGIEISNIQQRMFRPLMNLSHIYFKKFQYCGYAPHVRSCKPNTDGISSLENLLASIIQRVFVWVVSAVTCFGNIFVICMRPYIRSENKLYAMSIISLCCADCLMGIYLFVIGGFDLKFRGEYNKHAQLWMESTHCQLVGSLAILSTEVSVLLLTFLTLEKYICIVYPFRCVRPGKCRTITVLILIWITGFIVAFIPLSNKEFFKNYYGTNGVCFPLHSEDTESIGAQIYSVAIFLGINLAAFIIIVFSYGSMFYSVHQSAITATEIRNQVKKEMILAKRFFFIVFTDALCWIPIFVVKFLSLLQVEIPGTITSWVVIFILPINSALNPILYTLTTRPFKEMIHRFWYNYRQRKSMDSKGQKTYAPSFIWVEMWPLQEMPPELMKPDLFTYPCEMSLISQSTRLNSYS
Experiment: cell-based or functional assay
*1 amine or outer side, *2 acyl side, *3 side chain or, on linkers, in order; H or OH if unused. Primed or numbered codes have the meaning given here. Side-chain parts run from the residue outwards. [ ]: non-standard residue; d: D form. The star is where a group is joined. γGlu = O=C(O)[C@H](CCC(=O)[*:2])N[*:1]; Palmitoyl = CCCCCCCCCCCCCCCC(=O)*; Nle = CCCC[C@H](N)C(=O)O; PEG2′ = PEG2 spacer unit; Aib = CC(C)(N)C(=O)O
assay readout: EC50 (nM), OVCAR 5 cells (cAMP)
Numeric answer only, unit nM assumed.

Req: Need EC50 (nM), OVCAR 5 cells (cAMP) of Ac-LEGREKVRAK(Ac)I[Aib][Aib]EG[Nle]STWSXRKK(Ac)[PEG2′][PEG2′][PEG2′][PEG2′][γGlu][γGlu][γGlu]K([γGlu-Palmitoyl])-NH2 (not fully specified (some residues); printed as Ac-L-E-G-R-E-K-V-R-A-K(Ac)-I-Aib-Aib-E-G-Nle-S-T-W-S-Mly-R-K-K(Ac)-PEG2-PEG2-PEG2-PEG2-gE-gE-gE-K(gE-Palm)-NH2) [peptide of SEQ ID NO: 136] , thanks.
Resp: 0.03

Source of measurements: patent US20190233493A1
